- measurement.notes: Multiple-dose pharmacokinetics (part 2, cohorts F, G, H)
- Format: in vivo, human
- assay.setup: human, plasma, oral, F/375/125 mg (Japanese), Day 5, fasted; geometric mean (%CV)
recorded.endpoint: Cmax (µg/mL)
The reply should contain only the number, in µg/mL.

The reported Cmax of the compound Cn1cnc(Cn2c(=O)[nH]/c(=N\c3cc4cn(C)nc4cc3Cl)n(Cc3cc(F)c(F)cc3F)c2=O)n1 was 30.4

----------
- measurement.notes: Single ascending oral dose pharmacokinetics (part 1, plasma and urine, fasted)
- Assay type: in vivo, human
- assay.setup: human, plasma, oral, cohort/dose A/20 mg, single dose, geometric mean (%CV)
recorded.endpoint: AUC(0-inf) (ng·h/mL)
The reply should contain only the number, in ng·h/mL.

The reported AUC(0-inf) of the compound Cn1cnc(Cn2c(=O)[nH]/c(=N\c3cc4cn(C)nc4cc3Cl)n(Cc3cc(F)c(F)cc3F)c2=O)n1 was 91400

----------
- measurement.notes: Single ascending oral dose pharmacokinetics (part 1, plasma and urine, fasted)
- Format: in vivo, human
- assay.setup: human, plasma, oral, cohort/dose C/250 mg, single dose, geometric mean (%CV)
recorded.endpoint: Cmax (ng/mL)
The reply should contain only the number, in ng/mL.

The reported Cmax of the molecule Cn1cnc(Cn2c(=O)[nH]/c(=N\c3cc4cn(C)nc4cc3Cl)n(Cc3cc(F)c(F)cc3F)c2=O)n1 was 15200

----------
- measurement.notes: Single ascending oral dose pharmacokinetics (part 1, plasma and urine, fasted)
- Type: in vivo, human
- assay.setup: human, plasma, oral, cohort/dose C/250 mg, single dose, geometric mean (%CV)
recorded.endpoint: AUC(0-inf) (µg·h/mL)
The reply should contain only the number, in µg·h/mL.

The reported AUC(0-inf) of the compound Cn1cnc(Cn2c(=O)[nH]/c(=N\c3cc4cn(C)nc4cc3Cl)n(Cc3cc(F)c(F)cc3F)c2=O)n1 was 914

----------
- measurement.notes: Multiple-dose pharmacokinetics (part 2, cohorts F, G, H)
- Type: in vivo, human
- assay.setup: human, plasma, oral, 750 mg, G/750/250 mg (Japanese), Day 1, fasted; geometric mean (%CV); read-out: AUC0-τ
recorded.endpoint: AUC (µg·h/mL)
The reply should contain only the number, in µg·h/mL.

The reported AUC of the molecule Cn1cnc(Cn2c(=O)[nH]/c(=N\c3cc4cn(C)nc4cc3Cl)n(Cc3cc(F)c(F)cc3F)c2=O)n1 was 818

----------
- measurement.notes: Single ascending oral dose pharmacokinetics (part 1, plasma and urine, fasted)
- Assay type: in vivo, human
- assay.setup: human, urine and plasma, oral, cohort/dose B/70 mg, single dose, geometric mean (%CV)
recorded.endpoint: CL renal
Please don't drop the unit; write it after the number.

The reported CL renal of the molecule Cn1cnc(Cn2c(=O)[nH]/c(=N\c3cc4cn(C)nc4cc3Cl)n(Cc3cc(F)c(F)cc3F)c2=O)n1 was 0.668 mL/min
